The reported measurements were obtained from patent US20220324835A1.

# target_entity: Cbl-b (residues 36-427) (Homo sapiens, UniProt Q13191)
# Sequence (Q13191 36-427): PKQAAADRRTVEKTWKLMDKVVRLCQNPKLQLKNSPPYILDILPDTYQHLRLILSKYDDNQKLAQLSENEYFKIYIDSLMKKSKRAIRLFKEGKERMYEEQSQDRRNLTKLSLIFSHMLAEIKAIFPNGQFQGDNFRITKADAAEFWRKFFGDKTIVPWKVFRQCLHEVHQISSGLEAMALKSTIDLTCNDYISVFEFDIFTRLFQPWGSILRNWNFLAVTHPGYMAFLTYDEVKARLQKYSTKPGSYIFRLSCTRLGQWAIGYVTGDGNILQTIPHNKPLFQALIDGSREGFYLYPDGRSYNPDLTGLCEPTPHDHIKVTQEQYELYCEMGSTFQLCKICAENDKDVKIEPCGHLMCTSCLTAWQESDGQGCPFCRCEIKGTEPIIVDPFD
# assay_comment: Cbl-b binding assay (SPR, Biacore T200)
# test_context: 20° C., 1:1 binding model
Task for the reader: assign each of the following compounds its reported Kd.

compound: Cn1cnnc1CC1(c2cccc(N3Cc4c(cc(CN5CCC(F)(F)C5)cc4C(F)(F)F)C3=O)c2)COC1 [Compound 411]
observed_value: < 0.1 µM

Provide reported Kd for each item, in the same order as listed.
1. Cc1cc(C(=O)Nc2cccc([C@H](C)Sc3nncn3C)c2)nc2ccccc12 [Compound 30]
2. C[C@H](Cc1nncn1C)c1cc(N2Cc3c(cccc3C(F)(F)F)C2=O)ccc1F [Compound 280]
3. C[C@H](Cc1nncn1C)c1cccc(NC(=O)c2cc(C(=O)N3CC(O)C(F)(F)C3)ccn2)c1 (stereo partly shown) [Compound 243]
4. C=CCC(Sc1nncn1C)c1cccc(NC(=O)c2ccc3ccccc3n2)c1 (stereo not shown) [Compound 134]
5. Cc1ccc(C(=O)Nc2cccc([C@H](C)Sc3nncn3C)c2)nc1C1CC1 [Compound 54]
6. C[C@H](Cc1nccn1C)c1cccc(N2Cc3c(cccc3C(F)(F)F)C2=O)c1 [Compound 267a]
7. C[C@H](Cc1nncn1C)c1cccc(N2Cc3c(cc(C(=O)N4C[C@@H](O)C[C@H]4C)cc3C(F)(F)F)C2=O)c1 [Compound 275]
8. Cn1cnnc1C(F)(F)C(C)(O)c1cccc(N2Cc3c(cccc3C(F)(F)F)C2=O)c1 (stereo not shown) [Compound 295]

1: 1 to 3 µM; 2: 1 to 3 µM; 3: > 10 µM; 4: > 10 µM; 5: 0.1 to 0.3 µM; 6: 3 to 10 µM; 7: < 0.1 µM; 8: 1 to 3 µM
